Tested on: NOMO1
Test: cell viability relative to DMSO control; higher = less cytotoxic
Settings: RPMI 5 mM glucose + 10% dialyzed FBS; 48 h; 0.19 µM
quantityKind: cell viability

Please review the entries below; each comes with its answer.
{"columns": ["smilesRecord", "quantityKind", "reported"],
 "data": [
  ["CC(=O)C\\1=C(/C)C2=CN=C(NC3=CC=C(C=N3)N4CCNCC4)N=C2N(C5CCCC5)C1=O", "cell viability", "112%"],
  ["C[C@@H]1COCCN1C\\2=C\\C(=O)N\\3CC[C@H](N(CC4=CN=CC(=C4)Cl)C3=N2)C(F)(F)F", "cell viability", "113%"]
]}

Which cell viability is reported for this compound? CC(C)n1nc(-c2ccc3oc(N)nc3c2)c2c(N)ncnc21
52.6%

Quick one: cell viability of NC1=NC=C(C=C1)C2=CC=C3N=CC\4=C(N(C(=O)\C=C4)C5=CC(=CC=C5)C(F)(F)F)C3=C2 ?
28.5%
